Some compounds, each annotated with its measured pIC50.
Biological target: SARS-CoV-2 PLpro (Severe acute respiratory syndrome coronavirus 2)
Assay: biochemical
Assay type: biochemical
Conditions: after 30-minute incubation; Z-RLRGG-AMC
pIC50: −log10 of the molar value.

{"columns": ["compound", "measurementTarget", "cmp", "pIC50"],
 "data": [
  ["C[C@@H](NC(=O)c1ccccc1CCC(=O)NNC(=O)C(C#N)=CC1CC1)c1cccc2ccccc12 [Compound 13]", "SARS-CoV-2 PLpro (Severe acute respiratory syndrome coronavirus 2)", "<", 3.70],
  ["C[C@@H](NC(=O)c1ccccc1CCC(=O)NN)c1cccc2ccccc12 [Compound 5]", "SARS-CoV-2 PLpro (Severe acute respiratory syndrome coronavirus 2)", "=", 4.62],
  ["CC(=O)Nc1ccc(CCC(=O)NNC(=O)CCl)c(C(=O)N[C@H](C)c2cccc3ccccc23)c1 [Compound 10]", "SARS-CoV-2 PLpro (Severe acute respiratory syndrome coronavirus 2)", "=", 5.36],
  ["CC(=O)Nc1ccc(C)c(C(=O)N[C@H](C)c2cccc3ccccc23)c1 [Compound 15]", "SARS-CoV-2 PLpro (Severe acute respiratory syndrome coronavirus 2)", "=", 5.21]
]}
